# Test Description: RP, Waters ACQUITY UPLC BEH C18, 100 × 2.1 mm, 1.7 µm, 0.3 mL/min, estimated dead time 0.73 min; A: water + 0.1% formic acid, pH 3; B: methanol + 0.1% formic acid, pH 3; gradient (min/%B) 0/10 14/90 16/90 18/10
# Condition: stereoisomer not certain
Threshold 6 min: LC retention time strictly smaller gives satisfied, otherwise not satisfied.

compound=CNC(=O)ON=C(SC)C(=O)N(C)C category=satisfied
compound=Cc1cc(C)nc(NC(=O)NS(=O)(=O)c2ccccc2C(=O)OC2COC2)n1 category="not satisfied"
compound="CCC(C)C(=O)OC1CC(O)C=C2C=CC(C)C(CCC(O)CC(O)CC(=O)O)C21 (stereo not drawn)" category="not satisfied"
compound=COC(=O)c1c(Cl)nn(C)c1S(=O)(=O)NC(=O)Nc1nc(OC)cc(OC)n1 category="not satisfied"
compound="CCC(C(=O)O)C1OC(C(C)C(O)C(C)C(=O)C(CC)C2OC3(C=CC(O)C4(CCC(C)(C5CCC(O)(CC)C(C)O5)O4)O3)C(C)CC2C)C(C)CC1C (stereo not drawn)" category="not satisfied"
compound=COC(=O)c1sccc1S(=O)(=O)NC(=O)Nc1nc(C)nc(OC)n1 category=satisfied
compound="CC12CCC(=O)C=C1CCC1C2C(=O)CC2(C)C1CCC2(O)C(=O)CO (stereo not drawn)" category="not satisfied"
compound=COP(=S)(OC)Oc1nc(Cl)c(Cl)cc1Cl category="not satisfied"

###

# Test Description: RP, Waters ACQUITY UPLC BEH C18, 100 × 2.1 mm, 1.7 µm, 0.3 mL/min, estimated dead time 0.73 min; A: water + 0.1% formic acid, pH 3; B: methanol + 0.1% formic acid, pH 3; gradient (min/%B) 0/10 14/90 16/90 18/10
# Condition: stereoisomer not certain
// class assignment uses LC retention time with these ranges: category 1 (below 7 min), category 2 (7 min to below 9 min), category 3 (9 min or more)

molecule="CN(C)CCOC(c1ccccc1)c1ccccc1 [Diphenhydramine]" category="category 2"
molecule=c1coc(-c2nc3ccccc3[nH]2)c1 category="category 1"
molecule=CNC(=O)N(C)c1nnc(C(C)(C)C)s1 category="category 2"
molecule="CC(C)(C)NCC(O)c1cc(Cl)c(N)c(Cl)c1 (stereo not given)" category="category 1"
molecule=CNC(=N[N+](=O)[O-])NCc1cnc(Cl)s1 category="category 1"
molecule=CCOC(=O)NCCOc1ccc(Oc2ccccc2)cc1 category="category 3"
molecule=CCCCOC(=O)N(C)SN(C)C(=O)Oc1cccc2c1OC(C)(C)C2 category="category 3"
molecule="[O-][n+]1nc(-n2ccnc2)nc2ccc(Cl)cc21 [Triazoxide]" category="category 2"
molecule=CCN(CC)C(=O)N1CCN(C)CC1 category="category 1"
molecule="CC1(C)SC2C(NC(=O)Cc3ccccc3)C(=O)N2C1C(=O)O (stereo not given)" category="category 2"

###

# Test Description: RP, Waters ACQUITY UPLC BEH C18, 100 × 2.1 mm, 1.7 µm, 0.3 mL/min, estimated dead time 0.73 min; A: water + 0.1% formic acid, pH 3; B: methanol + 0.1% formic acid, pH 3; gradient (min/%B) 0/10 14/90 16/90 18/10
# Condition: stereoisomer not certain
molecules and their reported LC retention time
Value Type: LC retention time (min)

molecule="C=CCC1=C(C)C(OC(=O)C2C(C=C(C)C)C2(C)C)CC1=O (stereo unspecified) [Allethrin]" value_type="LC retention time" data_value=13.1
molecule="CNC(=O)ON=CC(C)(C)SC [Aldicarb]" value_type="LC retention time" data_value=6.2
molecule="Fc1ccc(C2CCNCC2COc2ccc3c(c2)OCO3)cc1 (stereo unspecified) [Paroxetine]" value_type="LC retention time" data_value=9.22
molecule="CNC(C)C(=O)c1ccccc1 (stereo unspecified) [Methcathinone]" value_type="LC retention time" data_value=2.95
molecule="CC(C)(C)C(=O)C(Oc1ccc(Cl)cc1)n1cncn1 (stereo unspecified) [Triadimefon]" value_type="LC retention time" data_value=10.6
molecule="COP(=O)(NC(C)=O)SC (stereo unspecified) [Acephate]" value_type="LC retention time" data_value=1.45
molecule="COP(=S)(OC)Oc1ccc(S(C)=O)c(C)c1 (stereo unspecified) [Fenthion sulfoxide]" value_type="LC retention time" data_value=7.8
molecule="CC1CCCCC1NC(=O)Nc1ccccc1 (stereo unspecified) [Siduron A]" value_type="LC retention time" data_value=9.88
molecule="COC(=O)c1cccc(C)c1S(=O)(=O)NC(=O)Nc1nc(OCC(F)(F)F)nc(N(C)C)n1 [Triflusulfuron-methyl]" value_type="LC retention time" data_value=9.27
molecule="CN(CC=CC#CC(C)(C)C)Cc1cccc2ccccc12 [Terbinafine]" value_type="LC retention time" data_value=13.7
molecule="CCCCOC(=O)C(C)Oc1ccc(Oc2ccc(C(F)(F)F)cn2)cc1 (stereo unspecified) [Fluaziflop-P-butyl]" value_type="LC retention time" data_value=13.1
molecule="CC(C)Oc1cc(-n2nc(C(C)(C)C)oc2=O)c(Cl)cc1Cl [Oxadiazon]" value_type="LC retention time" data_value=13
molecule="CON=C(Cc1cccnc1)c1ccc(Cl)cc1Cl (single isomer, unassigned; isomer 1) [Pyrifenox ISOMER 1]" value_type="LC retention time" data_value=10.2
molecule="COC(=O)C(C)N(C(=O)Cc1ccccc1)c1c(C)cccc1C (stereo unspecified) [Benalaxyl]" value_type="LC retention time" data_value=11.7
molecule="Cc1ncc([N+](=O)[O-])n1CCCO [Ternidazole]" value_type="LC retention time" data_value=2.89
molecule="Cc1nnc(-c2ccccc2)c(=O)n1N [Metamitron]" value_type="LC retention time" data_value=4.51
molecule="CC(Oc1ccc(Oc2ncc(C(F)(F)F)cc2Cl)cc1)C(=O)O (stereo unspecified) [Haloxyfop]" value_type="LC retention time" data_value=11.8
molecule="CCn1cc(C(=O)O)c(=O)c2cnc(N3CCNCC3)nc21 [Pipemidic acid]" value_type="LC retention time" data_value=3.48
molecule="CC(C)C1(C)N=C(c2nc3ccccc3cc2C(=O)O)NC1=O (stereo unspecified) [Imazaquin]" value_type="LC retention time" data_value=5.22
molecule="COC(=O)c1ccccc1S(=O)(=O)NC(=O)N(C)c1nc(C)nc(OC)n1 [Tribenuron methyl]" value_type="LC retention time" data_value=7.52
molecule="CSc1nc(NC(C)C)nc(NC(C)C)n1 [Prometryn]" value_type="LC retention time" data_value=10.8

Hello, the source for this data is the RepoRT retention time repository (doi:10.1016/j.scitotenv.2015.08.078), in case you need it.
